# Study Target: NRAS G12C (Homo sapiens (Human), UniProt P01111+P62937, G12C)
# Sequence (P01111 whole entry G12C): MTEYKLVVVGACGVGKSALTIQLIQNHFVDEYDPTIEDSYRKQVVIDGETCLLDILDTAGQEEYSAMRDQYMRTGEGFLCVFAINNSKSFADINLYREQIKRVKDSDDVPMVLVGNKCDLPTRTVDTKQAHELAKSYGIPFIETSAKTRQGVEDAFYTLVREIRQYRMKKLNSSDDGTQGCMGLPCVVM
# Sequence (P62937 whole entry): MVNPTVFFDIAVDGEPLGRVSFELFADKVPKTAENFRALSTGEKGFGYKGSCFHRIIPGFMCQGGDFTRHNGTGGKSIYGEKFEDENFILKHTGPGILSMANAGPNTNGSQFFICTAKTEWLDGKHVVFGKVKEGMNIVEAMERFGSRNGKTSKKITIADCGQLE
# Protocol: Ras-Raf (BRAF RBD) disruption / FRET / MOA assay, NRAS G12C
# Format: biochemical
# Condition Summary: read-out: IC50* NRAS G12C FRET data
Assay Readout: IC50

Example compounds with recorded IC50:
# Compound, Result
records = [
    ("C=CC(=O)N(C)[C@H]1CN(C(=O)N(C)[C@H](C(=O)N[C@H]2Cc3nc(cs3)-c3ccc4c(c3)c(c(-c3cccnc3[C@H](C)OC)n4CC)CC(C)(C)COC(=O)[C@@H]3CCCN(N3)C2=O)C(C)C)C[C@H]1F (atropisomer, axis not shown)", "10 to 100 nM"),
    ("CCn1c(-c2cccnc2[C@H](C)OC)c2c3cc(ccc31)N1CCC[C@@H](C[C@H](NC(=O)[C@@H](COC3CN(C(=O)C#CC(C)(C)N(C)C)C3)C(C)C)C(=O)N3CCC[C@H](N3)C(=O)OCC(C)(C)C2)C1 (atropisomer, axis not shown)", "10 to 100 nM"),
    ("C=CC(=O)N1CC[C@H](C(=O)N(C)[C@H](C(=O)N[C@H]2Cc3cc(O)cc(c3)-c3cc4c(c(-c5ccccc5CCOC)n(CC)c4cn3)CC(C)(C)COC(=O)[C@@H]3CCCN(N3)C2=O)C(C)C)C1", "1000 to 10000 nM"),
]

Exam item: For the compound CO[C@@H](C)c1ncccc1-c1c2c3cc(ccc3n1CC(F)(F)F)-c1csc(n1)C[C@H](NC(=O)CCOC1CN(C(=O)C#CC(C)(C)N3CCC3)C1)C(=O)N1CCC[C@H](N1)C(=O)OCC(C)(C)C2 (atropisomer, axis not shown) , report IC50.
Marked response: 10 to 100 nM
